B1: CPEB3 Ribozyme (parent)
chain: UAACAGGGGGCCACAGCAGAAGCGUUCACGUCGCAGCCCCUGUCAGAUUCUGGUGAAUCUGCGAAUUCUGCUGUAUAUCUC

# Variants of: B1
# protocol.notes: self-cleavage, relative activity (ratio to wild type); higher = more cleavage; in vitro, sequencing
Cut-off 0.5 on self-cleavage, inclusive. At or above means condition met; below means condition not met.

* A18U U25A | condition not met
* U43C G52A | condition met
* C11A C17U | condition not met
* A15G C23U | condition not met
* U58C G73A | condition met
* G7U A35G | condition not met
* U25G U69A | condition not met
* G36U U72C | condition not met
* A5C U41A | condition not met
* A28G G63A | condition not met
* C17U C71A | condition not met
* A20G U60C | condition not met
* A3C A35G | condition met
* A28U G55A | condition met
* U26A G52U | condition met
* U31G U41A | condition not met
* A5U A21G | condition met
* C40U A57C | condition not met
* G7A U54C | condition not met
* G9A U60A | condition not met
* U31A C44U | condition not met
* C14U U66A | condition met
* A45U U78A | condition met
* U25A G33C | condition not met
* U1A | condition met
* U48G A64G | condition not met
* A5U G24U | condition not met
* C29A | condition not met
* U26C A45C | condition not met
* A5G C39A | condition not met
* C14A C38G | condition not met
* U26A U49G | condition not met
* A13U C79A | condition met
* A21U A47G | condition not met
* U31C C50U | condition met
* A18G G55U | condition met
* U25G A65G | condition not met
* G22A U69A | condition not met
* G36C A64G | condition not met
* C12G U41G | condition not met
* C27A U69A | condition not met
* A75G U80G | condition met
* A45C U60C | condition not met
* U25A C62U | condition not met
